assay-text: Quantitative High-Throughput drug screen in 47 multiple myeloma cell lines against the NCATS MIPE library collection: AMO1_DSMZ cell viability assay (AID 1918927; note: nearly all actives have a fitted effect of over 30% in size)
condition-set: AMO1 myeloma cells viability, CellTiter-Glo ATP luminescence, 48 h; series mostly up to 45.8 µM
Results filed as inconclusive are left out. The source made the active and inactive calls. Calls come from the whole dose curve; as a rule, active = well fitted cell-killing curve with a large enough effect; inconclusive = small, poorly fitted or top-dose-only effect, or effect the other way; inactive = no such curve, though single readings can be large or run the other way.
The reply should be one of these categories: Y (active), N (inactive)

# count of solved cases: 4
N[C@@H](C(=O)N[C@@H]1C(=O)N2C(C(=O)O)=C(Cl)CS[C@H]12)c1ccccc1 = N
CN1CCN(c2c(F)cc3c(=O)c(C(=O)O)cn4c3c2OCN4C)CC1 = N
COc1ccc(-c2ccc3cc(C(=O)O)ccc3c2)cc1C12CC3CC(CC(C3)C1)C2 = N
Nc1nc(N)c2nc(CNc3ccc(C(=O)NC(CCC(=O)O)C(=O)O)cc3)cnc2n1 (stereo not given) = Y

Moving on to the next compound.
QUERY: Short answer needed: outcome of this test for `COC(=O)Nc1nc2ccc(Sc3ccccc3)cc2[nH]1` ?
RESULT: Y

Ref: PubChem BioAssay (NCATS)
